These measurements were taken from patent US20210324054A1.

Target: DN-IV quality control recombinant protein (produced by the company) (dengue virus)
Test: BLI, antibody on AMC sensor
MEASURED PROPERTY: koff (s⁻¹)

Mutation 1-40 (antibody, V domains shown) VH: EVQLQQPGPELVKPGASVKMSCKASGYTFTSSVIHWVRQKPGQGLEWIGYMNPYNDGLKYNEKFIGKAILTSDKSSSTAYMQLSSLTSEDSAVYYCTKEGLFYVFDYWGQGTSVTVSS VL: QIVLTQSPAIMSASPGEKVTMTCSATSSVSYMHWYQQKSGTSPKRWIYDTSKLASGVPVRFSGSGSGTSYSLTISSMEAEDAATYFCQYWRSDLPTFGAGTKLELKR ... 0.000261
Mutation 1-3 (antibody, V domains shown) VH: EVQLQQPGPELVKPGASVKMSCKASGYTFTSTVIHWVRQKPGQGLEWIGYMNPYNDGIKYNEKFIGKAILTSDKSSSTAYMQLSSLTSEDSAVYYCTREGLFYVFDYWGQGTSVTVSS VL: QIVLTQSPAIMSASPGEKVTMTCSATSSISYMHWYQQKSGTSPKRWIYDSSKLASGVPVRFSGSGSGTSYSLTISSMEAEDAATYFCQYWRSDLPTFGAGTKLELKR ... 0.000119
Mutation 1-7 (antibody, V domains shown) VH: EVQLQQPGPELVKPGASVKMSCKASGYTFTSSVIHWVRQKPGQGLEWIGYMNPYNDGLKYNEKFIGKAILTSDKSSSTAYMQLSSLTSEDSAVYYCTKEGLFYVFDYWGQGTSVTVSS VL: QIVLTQSPAIMSASPGEKVTMTCSATSSLSYMHWYQQKSGTSPKRWIYDSSKLASGVPVRFSGSGSGTSYSLTISSMEAEDAATYFCQWWRSDLPTFGAGTKLELKR ... 0.00024
Mutation 1-47 (antibody, V domains shown) VH: EVQLQQPGPELVKPGASVKMSCKASGYTFTSYVIHWVRQKPGQGLEWIGYMNPYNDGIKYNEKFIGKAILTSDKSSSTAYMQLSSLTSEDSAVYYCTREGLFYVFDYWGQGTSVTVSS VL: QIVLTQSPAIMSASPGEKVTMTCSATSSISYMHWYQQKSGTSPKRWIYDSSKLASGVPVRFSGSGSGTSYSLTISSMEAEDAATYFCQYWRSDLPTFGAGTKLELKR ... 0.000211
Mutation 1-29 (antibody, V domains shown) VH: EVQLQQPGPELVKPGASVKMSCKASGYTFTSYVIHWVRQKPGQGLEWIGYMNPYNDGIKYNEKFIGKAILTSDKSSSTAYMQLSSLTSEDSAVYYCTREGLFYVFDYWGQGTSVTVSS VL: QIVLTQSPAIMSASPGEKVTMTCSATSSISYMHWYQQKSGTSPKRWIYDSSKLASGVPVRFSGSGSGTSYSLTISSMEAEDAATYFCQWWRSDLPTFGAGTKLELKR ... 0.000178
